Target: MAP kinase-activated protein kinase 2 (Homo sapiens, UniProt P49137); further: in the data inactive means no Kd found up to 30 µM
Sequence (P49137 whole entry): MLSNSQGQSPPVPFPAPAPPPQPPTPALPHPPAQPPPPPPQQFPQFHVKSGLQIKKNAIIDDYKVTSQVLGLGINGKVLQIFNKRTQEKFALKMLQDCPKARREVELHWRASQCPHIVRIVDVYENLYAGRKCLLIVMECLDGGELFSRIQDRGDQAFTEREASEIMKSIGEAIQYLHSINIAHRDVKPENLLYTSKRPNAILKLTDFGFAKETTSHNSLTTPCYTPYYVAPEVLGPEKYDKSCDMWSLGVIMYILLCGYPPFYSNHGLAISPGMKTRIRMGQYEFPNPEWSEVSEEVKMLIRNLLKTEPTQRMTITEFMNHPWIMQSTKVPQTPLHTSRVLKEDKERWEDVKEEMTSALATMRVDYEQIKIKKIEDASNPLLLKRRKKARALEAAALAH
Active and inactive are the calls of the source.
Outcomes: yes for active, no for inactive

{"compound": "COc1c(OCCCN2CCOCC2)ccc2c1N=C(NC(=O)c1cnc(N)nc1)N1CCN=C21", "studyTarget": "MAP kinase-activated protein kinase 2 (Homo sapiens, UniProt P49137)", "categoryLabel": "no"}
{"compound": "CNC(=O)c1cc(Oc2ccc(NC(=O)Nc3cc(C(C)(C)C)nn3-c3ccc4ncccc4c3)c(F)c2)ccn1", "studyTarget": "MAP kinase-activated protein kinase 2 (Homo sapiens, UniProt P49137)", "categoryLabel": "yes"}
{"compound": "O=C1NC(=O)[C@@H](c2cn3c4c(cccc24)CCC3)[C@@H]1c1c[nH]c2ccccc12 [TIVANTINIB]", "studyTarget": "MAP kinase-activated protein kinase 2 (Homo sapiens, UniProt P49137)", "categoryLabel": "no"}

---

Target: Tyrosine-protein kinase JAK1 (Homo sapiens); further: in the data inactive means no Kd found up to 30 µM
Sequence (P23458 whole entry): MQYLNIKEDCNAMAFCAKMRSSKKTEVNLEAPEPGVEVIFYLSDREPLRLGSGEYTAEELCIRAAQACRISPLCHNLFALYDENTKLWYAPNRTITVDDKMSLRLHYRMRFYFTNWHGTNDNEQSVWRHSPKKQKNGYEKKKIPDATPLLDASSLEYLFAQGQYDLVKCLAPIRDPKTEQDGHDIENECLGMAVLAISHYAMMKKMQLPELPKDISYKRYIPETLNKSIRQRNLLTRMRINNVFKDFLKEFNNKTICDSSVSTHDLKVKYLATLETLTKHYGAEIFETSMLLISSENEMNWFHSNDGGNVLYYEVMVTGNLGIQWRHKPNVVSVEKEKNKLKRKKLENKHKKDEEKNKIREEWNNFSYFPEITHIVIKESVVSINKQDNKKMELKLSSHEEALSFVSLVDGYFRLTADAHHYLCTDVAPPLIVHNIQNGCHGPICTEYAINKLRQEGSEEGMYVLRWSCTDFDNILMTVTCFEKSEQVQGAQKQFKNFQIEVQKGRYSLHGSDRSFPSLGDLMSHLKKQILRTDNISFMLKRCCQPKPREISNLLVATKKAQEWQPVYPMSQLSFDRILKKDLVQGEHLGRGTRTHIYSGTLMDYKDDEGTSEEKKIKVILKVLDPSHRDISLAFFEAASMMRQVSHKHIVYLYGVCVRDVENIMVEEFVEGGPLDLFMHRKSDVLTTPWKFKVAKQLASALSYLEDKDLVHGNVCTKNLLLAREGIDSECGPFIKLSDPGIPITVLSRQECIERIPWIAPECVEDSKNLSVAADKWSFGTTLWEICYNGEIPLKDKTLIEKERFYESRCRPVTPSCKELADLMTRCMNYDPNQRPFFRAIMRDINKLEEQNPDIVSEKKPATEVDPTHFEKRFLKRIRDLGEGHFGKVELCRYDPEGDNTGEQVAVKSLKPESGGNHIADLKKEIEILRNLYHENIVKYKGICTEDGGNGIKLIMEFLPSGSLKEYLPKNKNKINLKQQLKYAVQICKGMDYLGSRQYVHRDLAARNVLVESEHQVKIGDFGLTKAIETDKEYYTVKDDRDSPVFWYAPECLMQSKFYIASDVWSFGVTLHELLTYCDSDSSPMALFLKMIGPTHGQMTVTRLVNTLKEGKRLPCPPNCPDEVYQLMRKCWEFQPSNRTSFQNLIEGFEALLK
Structures can show the parent of a compound that is named as a salt. Activity calls are given as the source filed them.
Outcomes: TRUE = active, FALSE = inactive

{"compound": "CCS(=O)(=O)N1CCN(c2ccc(Nc3ncc(C(N)=O)c(NC4CC4)n3)cc2)CC1 [Cerdulatinib Hydrochloride]", "categoryLabel": "TRUE"}
{"compound": "COc1cc([C@@H]2c3cc4c(cc3[C@H](O)[C@H]3COC(=O)[C@@H]23)OCO4)cc(OC)c1OC", "categoryLabel": "FALSE"}
{"compound": "COc1cc(Nc2ncc3c(n2)-c2ccc(Cl)cc2C(c2c(F)cccc2OC)=NC3)ccc1C(=O)O", "categoryLabel": "FALSE"}

---

Quick note: these are Kd numbers for system: Serine/threonine-protein kinase 16 (Homo sapiens); further: in the data inactive means no Kd found up to 30 µM
Sequence (O75716 whole entry): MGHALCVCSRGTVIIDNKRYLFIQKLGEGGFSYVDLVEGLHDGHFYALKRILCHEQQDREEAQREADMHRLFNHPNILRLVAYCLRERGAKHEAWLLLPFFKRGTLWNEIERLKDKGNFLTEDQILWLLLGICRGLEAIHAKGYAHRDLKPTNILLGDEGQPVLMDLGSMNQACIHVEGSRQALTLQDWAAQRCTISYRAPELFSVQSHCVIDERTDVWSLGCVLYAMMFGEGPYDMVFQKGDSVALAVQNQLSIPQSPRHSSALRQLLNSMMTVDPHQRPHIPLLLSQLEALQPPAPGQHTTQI
The source made the active and inactive calls.

{"smilesStr": "O=C(Nc1cc(C(F)(F)F)cc(C(F)(F)F)c1)c1cc(Cl)ccc1O", "studyTarget": "Serine/threonine-protein kinase 16 (Homo sapiens)", "Kd": "> 30 µM (inactive)"}
{"smilesStr": "Cn1cnc2c(F)c(Nc3ccc(Br)cc3F)c(C(=O)NOCCO)cc21", "studyTarget": "Serine/threonine-protein kinase 16 (Homo sapiens)", "Kd": "> 30 µM (inactive)"}
{"smilesStr": "COCC(=O)NC/C=C/c1ccc2ncnc(Nc3ccc(Oc4ccc(C)nc4)c(C)c3)c2c1", "studyTarget": "Serine/threonine-protein kinase 16 (Homo sapiens)", "Kd": "> 30 µM (inactive)"}
{"smilesStr": "Cc1nc(Nc2n[nH]c3c2CN(C(=O)N[C@H](CN(C)C)c2ccccc2)C3(C)C)c2sccc2n1", "studyTarget": "Serine/threonine-protein kinase 16 (Homo sapiens)", "Kd": "5.45 µM (active)"}
{"smilesStr": "Cc1cc(Nc2ncc(Cl)c(Nc3ccccc3S(=O)(=O)C(C)C)n2)c(OC(C)C)cc1C1CCNCC1", "studyTarget": "Serine/threonine-protein kinase 16 (Homo sapiens)", "Kd": "> 30 µM (inactive)"}
{"smilesStr": "Cn1cc(-c2cnc3ccc4ccc(CS(=O)(=O)NCc5ccccn5)cc4c(=O)c3c2)cn1", "studyTarget": "Serine/threonine-protein kinase 16 (Homo sapiens)", "Kd": "> 30 µM (inactive)"}

---

Target: Proto-oncogene tyrosine-protein kinase Src (Homo sapiens, UniProt P12931); further: in the data inactive means no Kd found up to 30 µM
Sequence (P12931 2-536 limits assumed): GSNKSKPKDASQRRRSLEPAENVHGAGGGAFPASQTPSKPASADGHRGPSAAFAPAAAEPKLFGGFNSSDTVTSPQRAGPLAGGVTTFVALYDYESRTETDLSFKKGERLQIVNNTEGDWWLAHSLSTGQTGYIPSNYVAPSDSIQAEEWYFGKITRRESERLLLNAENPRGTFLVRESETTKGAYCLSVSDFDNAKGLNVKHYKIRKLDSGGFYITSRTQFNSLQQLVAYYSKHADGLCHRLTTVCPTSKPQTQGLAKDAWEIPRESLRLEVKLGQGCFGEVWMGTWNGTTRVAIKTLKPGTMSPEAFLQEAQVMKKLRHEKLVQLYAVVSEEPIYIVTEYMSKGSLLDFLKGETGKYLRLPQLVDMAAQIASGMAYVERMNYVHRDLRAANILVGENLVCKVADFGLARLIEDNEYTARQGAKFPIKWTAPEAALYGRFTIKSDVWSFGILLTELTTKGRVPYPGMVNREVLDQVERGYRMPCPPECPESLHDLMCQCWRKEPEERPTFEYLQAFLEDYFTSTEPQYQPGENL
The source made the active and inactive calls.
Outcomes: Y for active, N for inactive

{"compound": "C[C@@H](NC(=O)c1ncnc(N)c1Cl)c1ncc(C(=O)Nc2cc(C(F)(F)F)c(Cl)cn2)s1 [TOVORAFENIB]", "categoryLabel": "N"}
{"compound": "Cn1ncc(Cl)c1-c1cc(C(=O)N[C@H](CN)Cc2ccc(F)c(F)c2)oc1Cl [UPROSERTIB]", "categoryLabel": "N"}
{"compound": "CO[C@H]1C[C@@H]2CC[C@@H](C)[C@@](O)(O2)C(=O)C(=O)N2CCCC[C@H]2C(=O)O[C@H]([C@H](C)C[C@@H]2CC[C@@H](O)[C@H](OC)C2)CC(=O)[C@H](C)/C=C(\\C)[C@@H](O)[C@@H](OC)C(=O)[C@H](C)C[C@H](C)/C=C/C=C/C=C/1C [SIROLIMUS]", "categoryLabel": "N"}
{"compound": "CCS(=O)(=O)c1cccc(-c2cc(C(=O)NC3CCN(C)CC3)c(C)c3[nH]c4ncc(C)cc4c23)c1 [TAK-901]", "categoryLabel": "Y"}
{"compound": "COc1ncc(-c2ccc3nccc(-c4ccnnc4)c3c2)cc1NS(=O)(=O)c1ccc(F)cc1F [OMIPALISIB]", "categoryLabel": "N"}
{"compound": "CN(C[C@@H]1COCCO1)S(=O)(=O)Nc1ccc2ccc3ncc(-c4cnn(C)c4)cc3c(=O)c2c1 [MK-2461]", "categoryLabel": "N"}
{"compound": "Cc1cnc(NC(=O)Nc2cc(Br)c(C)cc2OC[C@@H]2CNCCO2)cn1 [RABUSERTIB]", "categoryLabel": "N"}
{"compound": "CCCCCCCCCCCCCCCCCCOP(=O)([O-])OC1CC[N+](C)(C)CC1 [PERIFOSINE]", "categoryLabel": "N"}
{"compound": "COc1cc2ncnc(Oc3cccc(NC(=O)Nc4cc(C(C)(C)C(F)(F)F)on4)c3)c2cc1OC [CEP-32496]", "categoryLabel": "N"}
{"compound": "CC(=O)c1cnc2ccc(-c3cc(Cl)c(O)c(Cl)c3)nc2c1N[C@H]1CC[C@H](CN(C)C)CC1", "categoryLabel": "N"}
{"compound": "Nc1ncnc2c1c(-c1cccc(OCc3ccccc3)c1)cn2[C@H]1C[C@@H](CN2CCC2)C1 [AEW-541]", "categoryLabel": "Y"}
{"compound": "Cc1nc2cc(-n3ncc(C(=O)c4cc5ccccc5[nH]4)c3N)ccc2[nH]1 [FGFR INHIBITOR DEBIO 1347]", "categoryLabel": "N"}
{"compound": "CNC(=O)c1nn(C)c2c1C(C)(C)Cc1cnc(Nc3ccc(N4CCN(C)CC4)cc3)nc1-2 [MILCICLIB]", "categoryLabel": "Y"}
{"compound": "O=C(Cc1ccc(-c2ccc(OCCN3CCOCC3)cc2)cn1)NCc1ccccc1 [TIRBANIBULIN]", "categoryLabel": "N"}
{"compound": "COc1cc(Nc2ncc3c(n2)-c2ccc(Cl)cc2C(c2c(F)cccc2OC)=NC3)ccc1C(=O)O [ALISERTIB]", "categoryLabel": "N"}
{"compound": "C[C@H]1CNCCCN1S(=O)(=O)c1cccc2cncc(F)c12", "categoryLabel": "N"}
{"compound": "COc1c(OCCCN2CCOCC2)ccc2c1N=C(NC(=O)c1cnc(N)nc1)N1CCN=C21 [COPANLISIB]", "categoryLabel": "N"}
{"compound": "CO[C@H]1C[C@@H]2CC[C@@H](C)[C@@](O)(O2)C(=O)C(=O)N2CCCC[C@H]2C(=O)O[C@H]([C@H](C)C[C@@H]2CC[C@@H](OP(C)(C)=O)[C@H](OC)C2)CC(=O)[C@H](C)/C=C(\\C)[C@@H](O)[C@@H](OC)C(=O)[C@H](C)C[C@H](C)/C=C/C=C/C=C/1C [RIDAFOROLIMUS]", "categoryLabel": "N"}
{"compound": "O=C(Nc1cc(C(F)(F)F)cc(C(F)(F)F)c1)c1cc(Cl)ccc1O [IMD-0354]", "categoryLabel": "N"}
